Value source: patent US20230151432A1

testedSystem: mouse KIF18A (residues 1-467) (Mus musculus, UniProt Q91WD7)
Construct: mouse KIF18A (residues 1-467, 4 nM); made in house
Sequence (Q91WD7 1-467, one chain of several): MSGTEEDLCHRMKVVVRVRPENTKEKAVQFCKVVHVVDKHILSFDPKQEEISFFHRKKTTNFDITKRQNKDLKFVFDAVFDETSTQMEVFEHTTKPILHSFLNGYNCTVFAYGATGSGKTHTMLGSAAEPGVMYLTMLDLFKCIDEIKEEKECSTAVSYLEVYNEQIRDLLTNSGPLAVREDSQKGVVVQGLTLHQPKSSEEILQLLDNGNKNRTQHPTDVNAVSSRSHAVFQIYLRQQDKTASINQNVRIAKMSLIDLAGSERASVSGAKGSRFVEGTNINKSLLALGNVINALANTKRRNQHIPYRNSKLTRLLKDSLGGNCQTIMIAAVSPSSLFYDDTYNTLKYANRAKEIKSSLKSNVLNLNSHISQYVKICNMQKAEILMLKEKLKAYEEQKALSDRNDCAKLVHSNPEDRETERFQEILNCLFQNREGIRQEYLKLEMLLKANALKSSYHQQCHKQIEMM
procedureSummary: KIF18A MT-ATPase motor activity, ADP-Glo luminescence assay (Example 19)
Assay type: biochemical
observedProperty: IC50 (nM)
Numeric answer only, unit nM assumed.

Recorded IC50 (compound C[C@@H]1CN(c2cccc(NC(=O)c3ccc(NS(=O)(=O)CCO)cc3N3CCC4(CC3)CC4)n2)CCO1 [Compound C12] ): 39

* * *

testedSystem: human KIF18A (residues 1-467) (Homo sapiens)
Construct: human KIF18A (residues 1-467, 4 nM); made in house
Sequence (Q8NI77 1-467): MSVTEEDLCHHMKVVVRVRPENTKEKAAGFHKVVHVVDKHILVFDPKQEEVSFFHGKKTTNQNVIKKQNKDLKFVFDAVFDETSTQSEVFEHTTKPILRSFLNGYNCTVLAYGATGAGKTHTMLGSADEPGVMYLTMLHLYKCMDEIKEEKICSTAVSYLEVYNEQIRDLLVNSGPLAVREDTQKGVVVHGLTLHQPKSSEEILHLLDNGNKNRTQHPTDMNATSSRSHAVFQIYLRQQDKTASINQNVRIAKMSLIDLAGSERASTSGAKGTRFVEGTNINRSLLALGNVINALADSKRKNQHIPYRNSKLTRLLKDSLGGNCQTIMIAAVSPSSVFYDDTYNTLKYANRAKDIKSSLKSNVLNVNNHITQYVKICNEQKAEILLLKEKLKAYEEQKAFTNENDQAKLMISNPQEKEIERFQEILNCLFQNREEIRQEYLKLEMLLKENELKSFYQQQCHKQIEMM
Sequence (P02550 whole entry partner, the tested form may be a part): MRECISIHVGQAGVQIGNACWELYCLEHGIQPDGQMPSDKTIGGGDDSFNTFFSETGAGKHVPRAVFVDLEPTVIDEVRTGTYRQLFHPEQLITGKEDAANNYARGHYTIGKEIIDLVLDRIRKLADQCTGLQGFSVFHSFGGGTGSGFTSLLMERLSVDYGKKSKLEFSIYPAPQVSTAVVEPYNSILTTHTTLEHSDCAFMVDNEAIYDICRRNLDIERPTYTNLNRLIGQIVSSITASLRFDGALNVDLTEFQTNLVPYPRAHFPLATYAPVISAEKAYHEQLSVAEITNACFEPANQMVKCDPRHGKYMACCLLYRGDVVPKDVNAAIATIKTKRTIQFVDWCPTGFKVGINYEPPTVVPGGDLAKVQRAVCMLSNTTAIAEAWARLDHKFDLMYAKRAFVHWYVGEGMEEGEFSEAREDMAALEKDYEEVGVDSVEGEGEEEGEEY
Sequence (P02554 whole entry partner, the tested form may be a part): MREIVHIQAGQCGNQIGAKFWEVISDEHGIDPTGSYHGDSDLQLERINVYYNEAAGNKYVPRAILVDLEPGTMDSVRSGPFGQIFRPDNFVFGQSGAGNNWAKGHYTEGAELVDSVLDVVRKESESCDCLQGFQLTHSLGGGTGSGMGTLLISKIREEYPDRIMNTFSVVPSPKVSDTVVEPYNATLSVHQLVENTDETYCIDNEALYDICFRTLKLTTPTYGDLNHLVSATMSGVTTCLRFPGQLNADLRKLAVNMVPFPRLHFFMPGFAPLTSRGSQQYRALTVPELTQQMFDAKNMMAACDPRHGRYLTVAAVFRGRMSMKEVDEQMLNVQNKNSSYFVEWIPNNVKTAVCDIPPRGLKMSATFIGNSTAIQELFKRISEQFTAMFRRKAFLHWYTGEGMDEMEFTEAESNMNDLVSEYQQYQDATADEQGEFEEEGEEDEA
procedureSummary: KIF18A MT-ATPase motor activity, ADP-Glo luminescence assay (Example 19)
Assay type: biochemical
observedProperty: IC50 (nM)
Numeric answer only, unit nM assumed.

Recorded IC50 (molecule `C[C@@H]1CN(c2cccc(NC(=O)c3ccc(NS(=O)(=O)CCO)cc3N3CCC4(CC3)CC4)n2)CCO1` ): 40
